# Test system: 171881-019-R-J1-PDC tumor spheroids, viability
# PROTOCOL TEXT: Anticancer human tumor 171881-019-R-J1-PDC patient-derived invasive breast carcinoma cell line growth inhibition [GQUAD]
# EXPERIMENTAL CONDITIONS: second compound 0.0316 µM; first compound 0.000999 µM; active compounds read low; spheroids with HUVEC and MSC
Listed here are molecules together with their documented viability, T/C.

molecule="CCc1c2c(nc3ccc(O)cc13)-c1cc3c(c(=O)n1C2)COC(=O)[C@]3(O)CC + CN(C)c1ccc(Nc2c3ccc(NC(=O)CCN4CCCC4)cc3nc3cc(NC(=O)CCN4CCCC4)ccc23)cc1" reported_measurement=91.8%
molecule="Cn1ncnc1[C@H]1c2n[nH]c(=O)c3cc(F)cc(c23)N[C@@H]1c1ccc(F)cc1 + Cc1[nH]c2ccc(F)cc2c1-c1nc2c3cccnc3c3ncccc3c2[nH]1" reported_measurement=97.1%
molecule="Cn1ncnc1[C@H]1c2n[nH]c(=O)c3cc(F)cc(c23)N[C@@H]1c1ccc(F)cc1 + CN(C)c1ccc(Nc2c3ccc(NC(=O)CCN4CCCC4)cc3nc3cc(NC(=O)CCN4CCCC4)ccc23)cc1" reported_measurement=95.8%
molecule="Cn1ncnc1[C@H]1c2n[nH]c(=O)c3cc(F)cc(c23)N[C@@H]1c1ccc(F)cc1 + Cc1cnc(CNC(=O)c2c(=O)c3ccc(N4CCCN(C)CC4)nc3n3c2sc2ccccc23)cn1" reported_measurement=94.5%
molecule="CCc1c2c(nc3ccc(O)cc13)-c1cc3c(c(=O)n1C2)COC(=O)[C@]3(O)CC + Cc1cnc(CNC(=O)c2c(=O)c3ccc(N4CCCN(C)CC4)nc3n3c2sc2ccccc23)cn1" reported_measurement=62.6%

[ask] Report measured viability, T/C; entry is Cc1[nH]c2ccccc2c1CCNCc1ccc(/C=C/C(=O)NO)cc1 + CN(C)c1ccc(Nc2c3ccc(NC(=O)CCN4CCCC4)cc3nc3cc(NC(=O)CCN4CCCC4)ccc23)cc1
[reply] 96.9%

[ask] Return viability, T/C (reported value) for this molecule: CC[C@@]1(O)C(=O)OCc2c1cc1n(c2=O)Cc2cc3c(CN(C)C)c(O)ccc3nc2-1 + Cc1[nH]c2ccc(F)cc2c1-c1nc2c3cccnc3c3ncccc3c2[nH]1
[reply] 97%

[ask] Write down viability, T/C measured for item Cc1[nH]c2ccccc2c1CCNCc1ccc(/C=C/C(=O)NO)cc1 + Cc1[nH]c2ccc(F)cc2c1-c1nc2c3cccnc3c3ncccc3c2[nH]1
[reply] 109%

[ask] Quickly give me recorded viability, T/C for CCc1c2c(nc3ccc(O)cc13)-c1cc3c(c(=O)n1C2)COC(=O)[C@]3(O)CC + Cc1[nH]c2ccc(F)cc2c1-c1nc2c3cccnc3c3ncccc3c2[nH]1
[reply] 80.3%

[ask] Give the reported value of viability, T/C for this record: Cc1[nH]c2ccccc2c1CCNCc1ccc(/C=C/C(=O)NO)cc1 + Cc1cnc(CNC(=O)c2c(=O)c3ccc(N4CCCN(C)CC4)nc3n3c2sc2ccccc23)cn1
[reply] 108%

[ask] Please report the measured viability, T/C for CC[C@@]1(O)C(=O)OCc2c1cc1n(c2=O)Cc2cc3c(CN(C)C)c(O)ccc3nc2-1 + CN(C)c1ccc(Nc2c3ccc(NC(=O)CCN4CCCC4)cc3nc3cc(NC(=O)CCN4CCCC4)ccc23)cc1
[reply] 110%

[ask] Return value of viability, T/C for input CC[C@@]1(O)C(=O)OCc2c1cc1n(c2=O)Cc2cc3c(CN(C)C)c(O)ccc3nc2-1 + Cc1cnc(CNC(=O)c2c(=O)c3ccc(N4CCCN(C)CC4)nc3n3c2sc2ccccc23)cn1 , no commentary.
[reply] 96.2%

###

# System: 171881-019-R-J1-PDC tumor spheroids, viability
# PROTOCOL TEXT: Anticancer human tumor 171881-019-R-J1-PDC cell line growth inhibition [GQUAD];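 further: spheroids exposed to compounds for 7 days; 100% = DMSO vehicle control viability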
# EXPERIMENTAL CONDITIONS: second compound 0.0316 µM; first compound 3.16 µM; active compounds read low; spheroids with HUVEC and MSC
TEST READOUT: viability, T/C (%)
Write the number in % without appending the unit.

compound="CCCS(=O)(=O)Nc1ccc(F)c(C(=O)c2c[nH]c3ncc(-c4ccc(Cl)cc4)cc23)c1F + CN(C)c1ccc(Nc2c3ccc(NC(=O)CCN4CCCC4)cc3nc3cc(NC(=O)CCN4CCCC4)ccc23)cc1" tgt="171881-019-R-J1-PDC tumor spheroids, viability" test_readout="viability, T/C" unit_text=% reported_measurement=93.7
compound="CC(C)n1c(=O)n(C)c2cnc3cc(F)c(-c4ccc(OCCCN5CCCCC5)nc4)cc3c21 + Cc1cnc(CNC(=O)c2c(=O)c3ccc(N4CCCN(C)CC4)nc3n3c2sc2ccccc23)cn1" tgt="171881-019-R-J1-PDC tumor spheroids, viability" test_readout="viability, T/C" unit_text=% reported_measurement=39.1
compound="CC(=O)O[C@H]1C(=O)[C@@]2(C)[C@H]([C@H](OC(=O)c3ccccc3)[C@]3(O)C[C@H](OC(=O)[C@H](O)[C@@H](NC(=O)c4ccccc4)c4ccccc4)C(C)=C1C3(C)C)[C@]1(OC(C)=O)CO[C@@H]1C[C@@H]2O + Cc1[nH]c2ccc(F)cc2c1-c1nc2c3cccnc3c3ncccc3c2[nH]1" tgt="171881-019-R-J1-PDC tumor spheroids, viability" test_readout="viability, T/C" unit_text=% reported_measurement=28.9
compound="O=c1[nH]cc(F)c(=O)[nH]1 + CN(C)c1ccc(Nc2c3ccc(NC(=O)CCN4CCCC4)cc3nc3cc(NC(=O)CCN4CCCC4)ccc23)cc1" tgt="171881-019-R-J1-PDC tumor spheroids, viability" test_readout="viability, T/C" unit_text=% reported_measurement=62.9

Let's switch to this compound now.
[ask] Find the measured viability, T/C of COc1ncnc(C2CC2)c1-c1ncc2cnn(Cc3ccc(-c4nc(C(F)(F)F)cn4C(C)C)cc3)c2n1 + CN(C)c1ccc(Nc2c3ccc(NC(=O)CCN4CCCC4)cc3nc3cc(NC(=O)CCN4CCCC4)ccc23)cc1 and report it.
[reply] 92.8

###

Each entry below lists one item and its recorded viability, T/C value.
# System: 171881-019-R-J1-PDC tumor spheroids, viability
# PROTOCOL TEXT: Anticancer human tumor 171881-019-R-J1-PDC cell line growth inhibition [GQUAD];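 further: spheroids exposed to compounds for 7 days; 100% = DMSO vehicle control viability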
# EXPERIMENTAL CONDITIONS: second compound 0.316 µM; first compound 1 µM; active compounds read low; spheroids with HUVEC and MSC
Report the figure in % without appending any unit label.

Examples from the recorded data:
compound="CC(C)n1c(=O)n(C)c2cnc3cc(F)c(-c4ccc(OCCCN5CCCCC5)nc4)cc3c21 + CN(C)c1ccc(Nc2c3ccc(NC(=O)CCN4CCCC4)cc3nc3cc(NC(=O)CCN4CCCC4)ccc23)cc1" tgt="171881-019-R-J1-PDC tumor spheroids, viability" test_readout="viability, T/C" reported_measurement=37.6
compound="CC1COCCN1c1cc(-c2ccnn2C)c2ccnc(-c3ccn[nH]3)c2n1 (stereo not given) + Cc1[nH]c2ccc(F)cc2c1-c1nc2c3cccnc3c3ncccc3c2[nH]1" tgt="171881-019-R-J1-PDC tumor spheroids, viability" test_readout="viability, T/C" reported_measurement=7.52
compound="COc1ccc([C@@H](O)c2cc(-c3ncnc4cc(N5CCOCC5)ccc34)c(F)cc2Cl)nn1 + Cc1[nH]c2ccc(F)cc2c1-c1nc2c3cccnc3c3ncccc3c2[nH]1" tgt="171881-019-R-J1-PDC tumor spheroids, viability" test_readout="viability, T/C" reported_measurement=41

[ask] Item COc1cc(C2c3cc4c(cc3C(OC3OC5COC(C)OC5C(O)C3O)C3COC(=O)C23)OCO4)cc(OC)c1O (stereo not given) + Cc1[nH]c2ccc(F)cc2c1-c1nc2c3cccnc3c3ncccc3c2[nH]1 : provide viability, T/C
[reply] 43.8

[ask] Supply reported viability, T/C belonging to this compound: C#Cc1c(F)ccc2cc(O)cc(-c3ncc4c(N5CC6CCC(C5)N6)nc(OCC56CCCN5CC(F)C6)nc4c3F)c12 (stereo not given) + CN(C)c1ccc(Nc2c3ccc(NC(=O)CCN4CCCC4)cc3nc3cc(NC(=O)CCN4CCCC4)ccc23)cc1
[reply] 15.3

###

# Tested on: 171881-019-R-J1-PDC tumor spheroids, viability
# PROTOCOL TEXT: Anticancer human tumor 171881-019-R-J1-PDC cell line growth inhibition [GQUAD];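 further: spheroids exposed to compounds for 7 days; 100% = DMSO vehicle control viability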
# EXPERIMENTAL CONDITIONS: second compound 3.16 µM; first compound 10 µM; active compounds read low; spheroids with HUVEC and MSC
Listed next: entries and their corresponding viability, T/C.
Response body: numeric value in %, unit text excluded.

Example entries and their recorded answers appear below.
molecule="C#Cc1c(F)ccc2cc(O)cc(-c3ncc4c(N5CC6CCC(C5)N6)nc(OCC56CCCN5CC(F)C6)nc4c3F)c12 (stereo not drawn) + Cc1[nH]c2ccc(F)cc2c1-c1nc2c3cccnc3c3ncccc3c2[nH]1" tgt="171881-019-R-J1-PDC tumor spheroids, viability" unit_text=% reported_measurement=0.17
molecule="Cc1cccc(N(C)C(=O)C2C(O)CCN2c2nc(C)cc(C(F)(F)F)c2C#N)c1 (stereo not drawn) + CN(C)c1ccc(Nc2c3ccc(NC(=O)CCN4CCCC4)cc3nc3cc(NC(=O)CCN4CCCC4)ccc23)cc1" tgt="171881-019-R-J1-PDC tumor spheroids, viability" unit_text=% reported_measurement=1.26

[ask] Please give the documented viability, T/C of Nc1ccn(C2OC(CO)C(O)C2(F)F)c(=O)n1 (stereo not drawn) + Cc1[nH]c2ccc(F)cc2c1-c1nc2c3cccnc3c3ncccc3c2[nH]1
[reply] 16.2
